Catalogue of compounds with associated GI50
- System: BT-549
- TEST NAME: NCI tumour cell line growth inhibition, 48 h
Activity calls are given as the source filed them. Cut-off read from the data, not from the text of the source: active = GI50 up to about 1.1 µM and inactive = higher.

                                   compound  endpoint_name             reported
0  O=c1[nH]c(=O)n(C2OC(CO)C(O)C(F)C2O)cc1F (configuration not stated)           GI50  > 100 µM (inactive)

For BT-549, provide GI50 of "C[C@@H]1[C@@H](c2ccccc2)O[B-](c2ccccc2)(c2ccccc2)[N+]1(C)C" please.
43.6 µM (inactive)

For BT-549, provide GI50 of "O=C(O)[C@@H]1CSCN1C(=O)[C@@H]1CCC(=S)N1" please.
> 100 µM (inactive)

For BT-549, provide GI50 of "c1ccc(-c2cs[s+]c2)cc1" please.
> 100 µM (inactive)

For BT-549, provide GI50 of "Cn1c(=O)nc2n(CCO)c(-c3ccccc3)c(-c3ccccc3)nc-2c1=O" please.
> 100 µM (inactive)

---

- Test system: HL-60
- TEST NAME: NCI tumour cell line growth inhibition, 48 h
Active and inactive are the calls of the source. Rule as the data show it: active = GI50 up to about 1.1 µM and inactive = higher.
ENDPOINT NAME: GI50

Take a look at these entries with their results.
In [3]: df
Out[3]:
                                   compound  endpoint_name             reported
0  C=CCn1c(=S)sc2c(C(=O)OCC)c3c(C)cc(C)cn3c2c1=O           GI50  > 100 µM (inactive)
1     Cc1cc(Br)ccc1NC1=CC(=O)C(=O)c2ccccc21           GI50   13.6 µM (inactive)

Recorded GI50 for CC1CCCC(C(=O)CC2CC(=O)NC(=O)C2)C1=O (stereo not given) , please?
> 100 µM (inactive)

Recorded GI50 for "c1ccc(NN/N=N/c2ccc(-c3nc4ccccc4[nH]3)cc2)cc1" , please?
22 µM (inactive)

Recorded GI50 for CC(C)(C)COC(=O)C(C)(C)NC(=O)C(CC(=O)OCc1ccccc1)NC(=O)OCc1ccccc1 (stereo not given) , please?
46.5 µM (inactive)

Recorded GI50 for COC(=O)C(Cc1c[nH]c2ccccc12)NP(=O)(O)OCC1OC(n2ccc(N)nc2=O)C(O)C1O (stereo not given) , please?
> 100 µM (inactive)

Recorded GI50 for "C[C@]12CC[C@H]3[C@@H](CCC4=CC(=O)CC[C@@]43C)[C@@H]1CC[C@@H]2C(=O)COS(=O)(=O)c1ccc(Br)cc1" , please?
4.69 µM (inactive)

Recorded GI50 for "COC[C@@H](/N=C/C(C)(C)C)C(C)C" , please?
> 100 µM (inactive)

Recorded GI50 for COc1ccc(N2C(=O)C3c4[nH]c5ccc(C)cc5c4C4CCC(c5ccccc5)CC4C3C2=O)cc1 (stereo not given) , please?
12.8 µM (inactive)

Recorded GI50 for "C/C(CC(=O)Nc1cc(C)ccc1C)=N/N=C(N)N" , please?
> 100 µM (inactive)

---

- Tested on: HOP-62
- TEST NAME: NCI tumour cell line growth inhibition, 48 h
The source made the active and inactive calls. Cut-off read from the data, not from the text of the source: active = GI50 up to about 1.1 µM and inactive = higher. Where a SMILES comes first, the peptide text is derived from it. [ ]: non-standard residue; d: D form. The star is where a group is joined. Cbz = O=C(OCc1ccccc1)*; Aib = CC(C)(N)C(=O)O
The reply should name one outcome from active, inactive

Please review the following examples before continuing.
COMPOUND	CAT
CC(C)(C)COC(=O)C(C)(C)NC(=O)C(CC(=O)OCc1ccccc1)NC(=O)OCc1ccccc1 (stereo not given)	inactive
CCOC(=O)C(=O)Nc1nc2ccc(C)cc2s1	inactive
CC12OC1(C)C1C(=O)OCC1C2=O (stereo not given)	inactive
CC(=O)N1c2cc(/N=N/N(C)C)ccc2NC(=O)CC1C (stereo not given)	inactive
CC(CC[C@@H](O)C(C)(C)O)C1[C@@H](O)CC2(C)C3CC(O)C4C(C)(C)[C@@H](OC5OC(CO)C(O)C(O)C5O)CC[C@@]45C[C@@]35CC[C@]12C (stereo not given in full)	inactive
CN(CCCN(C)CCc1ccc(Cl)c(Cl)c1)CCCN1CCCC1	inactive

Record lookup: outcome of this test for CC(C)(NC(=O)C(C)(C)NC(=O)OCc1ccccc1)C(=O)O (Cbz-[Aib]-[Aib]-OH) ?
inactive

Record lookup: outcome of this test for CCC(C)C(Nc1c2ccccc2nc2c(C(=O)NCCN(C)C)cccc12)C(=O)O (stereo not given) ?
inactive

---

- System: HOP-18
- TEST NAME: NCI tumour cell line growth inhibition, 48 h
Activity calls are given as the source filed them. Rule as the data show it: active = GI50 up to about 1.1 µM and inactive = higher.
ENDPOINT NAME: GI50

Take a look at these entries with their results.
MOLECULE	GI50
COC(=O)C1(C)C=C(Nc2ccccc2)C(=O)N1c1ccccc1 (centres undefined)	> 100 µM (inactive)
CCCCCCCCCCCCC(SCCNC(=O)CCNC(=O)C(O)C(C)(C)COP(=O)(O)OP(=O)(O)OCC1OC(n2cnc3c(N)ncnc32)C(O)C1OP(=O)(O)O)C(=O)NCC(N)=O (centres undefined)	37.8 µM (inactive)
[O-]c1c2cc(-[n+]3c(-c4ccccc4)cc(-c4ccccc4)cc3-c3ccccc3)cc1COCCOCCOCCOCCOC2	57.3 µM (inactive)

For HOP-18, provide GI50 of C=CCC1(C)CCCCC1(O)C[S+]([O-])c1ccccc1 (centres undefined) please.
> 100 µM (inactive)

---

Catalogue of compounds with associated GI50
- Tested on: 786-0
- TEST NAME: NCI tumour cell line growth inhibition, 48 h
Calls of active or inactive are those of the source. Cut-off read from the data, not from the text of the source: active = GI50 up to about 1.1 µM and inactive = higher.

>>> print(df.to_string())
                                   compound  assay_target             reported
0            O=C(CCCCCNC(=O)c1ccc(Cl)cc1)NO         786-0   7.03 µM (inactive)
1  O=C1CC(NC(=O)C(F)(F)F)c2c(Br)sc(N3CCNCC3)c21 (stereo not given)         786-0  > 100 µM (inactive)
2        O=c1c2cc3c(cc2c2cccc4c2n1CCC4)OCO3         786-0     27 µM (inactive)
3  O=C(N/C(=C\c1ccc(Br)cc1)c1nc2ccccc2s1)c1ccccc1         786-0  > 100 µM (inactive)
4  COC(=O)C1CCC(=O)N1C(c1cc(OC)c(OC)c(OC)c1)c1cccc2ccccc12 (stereo not given)         786-0  > 100 µM (inactive)
5  CS/C(=N/S(=O)(=O)c1ccc(Cl)cc1)NCCCN/C(=N\S(=O)(=O)c1ccc(Cl)cc1)SC         786-0   25.2 µM (inactive)
6  BC(=O)NC(CC(C)C)C(=O)NCC(=O)NC1c2ccsc2C(=O)C1O.CN(C)C (stereo not given)         786-0  > 100 µM (inactive)
7                   O=C(c1ccccc1Br)C(F)(F)F         786-0  > 100 µM (inactive)
8  C=CCC1(C)CCCCC1(O)C[S+]([O-])c1ccccc1 (stereo not given)         786-0  > 100 µM (inactive)
9  O=C(O)CCC1(C(=O)O)CCC(=O)c2ccccc21 (stereo not given)         786-0  > 100 µM (inactive)

Recorded GI50 for "O=C(CC(=O)c1ccncc1)c1ccccc1" , please?
66.4 µM (inactive)

Recorded GI50 for O=C1c2cc(Cl)ccc2-n2cnnc2C2CSCN12 (stereo not given) , please?
> 100 µM (inactive)

Recorded GI50 for "COC(=O)c1scc(N)c1-n1ccc(=O)[nH]c1=O" , please?
> 100 µM (inactive)

Recorded GI50 for "O=c1cc(N2CCCC2)[nH]c(=O)n1-c1ccc(F)cc1" , please?
> 100 µM (inactive)

Recorded GI50 for "COc1ccc(/C(C#N)=C/c2ccc(OC)c(OC)c2)cc1" , please?
> 100 µM (inactive)

Recorded GI50 for NC(CSS(=O)(=O)c1ccccc1)C(=O)O (stereo not given) , please?
> 10 µM (inactive)

Recorded GI50 for "COc1ccc(CCCCl)c(C2=NCCc3cc(OC)c(OC)cc32)c1" , please?
94.8 µM (inactive)

Recorded GI50 for "CCCCCNC1=CC(=O)c2ccccc2C1=O" , please?
18.4 µM (inactive)

Recorded GI50 for "C[N+](C)(CCNc1ccc(NCC[N+](C)(C)Cc2ccc([N+](=O)[O-])cc2)c2c1C(=O)c1c(O)ccc(O)c1C2=O)Cc1ccc([N+](=O)[O-])cc1" , please?
8.41 µM (inactive)

---

- System: DU-145
- TEST NAME: NCI tumour cell line growth inhibition, 48 h
Calls of active or inactive are those of the source. No stated cut-off is given here; in the data, active = GI50 up to about 1.1 µM and inactive = higher.
Catalogue of compounds with associated GI50

Recorded GI50 for "O=C(NNC(=S)NC1CCCCC1)c1csc(NC(=S)NC2CCCCC2)n1" , please?
14.9 µM (inactive)

Recorded GI50 for "Oc1c2c(c(O)c3ccccc13)C1(N=N2)c2ccccc2Oc2ccccc21" , please?
8.73 µM (inactive)

Recorded GI50 for "Cc1noc(NS(=O)(=O)c2ccc(NC(=O)c3ccc4[nH]c5ccccc5c(=O)c4c3)cc2)c1C" , please?
> 100 µM (inactive)

Recorded GI50 for "Nc1nc(Cl)cc(Oc2ccc(Cl)cc2)n1" , please?
> 56.2 µM (inactive)
